- Test target: human GLP-1 receptor (human, UniProt P43220 24-463)
- Assay info: cell-based or functional assay
Positions of bridges follow the written chain, without caps; N, C: chain ends. Non-standard residues stand in square brackets, D forms with d. No end group written: not given here. *: point of attachment. Acetyl(2-(4-imidazolyl)) = O=C(Cc1c[nH]cn1)*; Aib = CC(C)(N)C(=O)O
Measured quantity: In vitro activity (%) compared with native peptide: vs GLP-1
Numbers only, in %.

The following binders have reported results that may help.
[in] Recorded In vitro activity (%) compared with native peptide: vs GLP-1 for H[Aib]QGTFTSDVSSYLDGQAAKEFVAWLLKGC (not fully specified) [triple agonist of SEQ ID NO: 6] , please?
[out] 17

[in] Sample Y[Aib]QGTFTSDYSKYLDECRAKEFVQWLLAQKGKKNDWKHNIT (bridge 16-20; not fully specified) [triple agonist of SEQ ID NO: 23] — what was its In vitro activity (%) compared with native peptide: vs GLP-1?
[out] 4.01

---
[in] Recorded In vitro activity (%) compared with native peptide: vs GLP-1 for {Acetyl(2-(4-imidazolyl))}-[Aib]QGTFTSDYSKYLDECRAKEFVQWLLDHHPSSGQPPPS (bridge 15-19; not fully specified) [triple agonist of SEQ ID NO: 73] , please?
[out] 22.6
